target_of_assay: NPSR receptor (Homo sapiens)
Construct: Full length cDNA for the NPSR receptor was purchased from OriGene Technologies; host or cells: HEK293T
Sequence (Q6W5P4 1-371): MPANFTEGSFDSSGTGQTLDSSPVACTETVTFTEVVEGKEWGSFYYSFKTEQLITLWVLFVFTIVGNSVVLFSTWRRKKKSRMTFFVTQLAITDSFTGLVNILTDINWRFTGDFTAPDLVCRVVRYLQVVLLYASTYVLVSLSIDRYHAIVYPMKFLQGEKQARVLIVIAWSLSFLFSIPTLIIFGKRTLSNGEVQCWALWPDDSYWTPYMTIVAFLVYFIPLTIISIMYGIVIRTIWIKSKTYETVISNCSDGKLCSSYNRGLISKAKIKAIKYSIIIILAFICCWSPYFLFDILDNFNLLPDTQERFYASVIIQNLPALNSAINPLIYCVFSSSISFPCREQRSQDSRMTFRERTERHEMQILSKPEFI
experiment_description: NFAT-luciferase reporter assay in HEK293T cells over-expressing NPSR (intracellular Ca2+ signaling)
Assay type: cell-based
measurement_parameters: HEK293T co-transfected with NFAT-luciferase reporter (50 ng), pSV-β-Gal (5 ng), NPSR plasmid (50 ng); after 36 h, 18 h with peptide in serum-free media; normalized to β-galactosidase; at least three experiments in triplicates; Graphpad Prism 5.0
metric: Agonist effect (NFAT) EC50

[
  {
    "substance": "F^6-NPS: NPS mutant with phenylalanine at the 6th position (SFRNGFGTGMKKTSFQRAKS; Neuropeptide S; UniProt P0C0P6 70-89, looked up, variant V6F)",
    "test_value": "inactive"
  },
  {
    "substance": "D^6-NPS: NPS mutant with aspartic acid at the 6th position (SFRNGDGTGMKKTSFQRAKS; Neuropeptide S; UniProt P0C0P6 70-89, looked up, variant V6D)",
    "test_value": "inactive"
  },
  {
    "substance": "N^6-NPS: NPS mutant with asparagine at the 6th position (SFRNGNGTGMKKTSFQRAKS; Neuropeptide S; UniProt P0C0P6 70-89, looked up, variant V6N)",
    "test_value": "inactive"
  },
  {
    "substance": "K^6-NPS: NPS mutant with lysine at the 6th position (SFRNGKGTGMKKTSFQRAKS; Neuropeptide S; UniProt P0C0P6 70-89, looked up, variant V6K)",
    "test_value": "inactive"
  }
]
